- target-or-test-system: Abeta 1-42 globulomer, P05067
- assay-remarks: 42 (globulomer) RLU over 40 (Abeta 1-40 monomer) RLU
// returns NOT MET unless 42:40 ratio is strictly below 2, in which case MET

binder: KKKFKF (modifications not checked) [KKKFKF-link]
class-assignment: NOT MET
//
binder: AAAKAA (modifications not checked)
class-assignment: MET
//
binder: IRYVTHQYILWP (modifications not checked) […]
class-assignment: NOT MET
//
binder: ANFFAHSS (modifications not checked)
class-assignment: MET
//
binder: FKFKKK (modifications not checked) [link-FKFKKK]
class-assignment: NOT MET
//
binder: FKFSLFSG (modifications not checked)
class-assignment: MET
//
binder: AKKKKK (modifications not checked)
class-assignment: NOT MET
//
binder: KKKFKF (modifications not checked) [link-KKKFKF]
class-assignment: NOT MET
//
binder: AAKKAA (modifications not checked)
class-assignment: MET
//
binder: FKFKKK (HELM PEPTIDE1{[ac].F.K.F.K.K.K.[O=C(CCCCCN[*:1])[*:2]].[O=C(CCCCCN[*:1])[*:2]].C.[am]}$$$$V2.0; SMILES CC(=O)N[C@@H](Cc1ccccc1)C(=O)N[C@@H](CCCCN)C(=O)N[C@@H](Cc1ccccc1)C(=O)N[C@@H](CCCCN)C(=O)N[C@@H](CCCCN)C(=O)N[C@@H](CCCCN)C(=O)NCCCCCC(=O)NCCCCCC(=O)N[C@@H](CS)C(N)=O) [Ac-FKFKKK-Link (Ac-FKFKKK-Ahx-Ahx-Cys-NH2)]
class-assignment: NOT MET
//
binder: AAKKKA (modifications not checked)
class-assignment: MET
//
binder: FKFNLFSG (modifications not checked)
class-assignment: NOT MET
//
binder: AKKKKA (modifications not checked)
class-assignment: NOT MET
